Values compiled from patent US20160228506A1.

assay: SGF digest of 168 nutritive polypeptide library, intact protein by LC-MS/MS; format: in vitro ADME; conditions: 168 nutritive polypeptide library SGF digest, LC-MS/MS spectral counts

molecule	% Intact Protein at 10 min / %
SEQID-00606: protein of the 168 nutritive polypeptide library (protein, Glycine max, protein of the 168 nutritive polypeptide library) MASEGDHHHHHHHHQDHDHHHHDHDHHHHHDGEGETNSWVGKDGKVYHSHDGLAPHSHEPIYSPGYFTRRAPPLLNRNFNERAFTVGIGGPVGTGKTALMLALCELLRENYSLAAVTNDIFTKEDGEFLVKHKALPEERIRAVETGGCPHAAIREDISINLGPLEELSNLFKADILLCESGGDNLAANFSRELADYIIYIIDVSGGDKIPRKGGPGITQADLLVINKTDLAPAIGADLAVMQRDALRMRDGGPFVFAQVKHKIGVEEIGNLVLQAWEAATGNKRH	0
SEQID-00518: protein of the 168 nutritive polypeptide library (protein, listed as Lactobacillus acidophilus, source: /note="strain 30SC", protein of the 168 nutritive polypeptide library) MTKGILGRKVGMTQIFTKDGVLVPVTVVEATPNVVMQVKTVESDGYEAVQLGYQDKREVLSNKPEKGHADKAKTSPKRFIREIRGVELKDYEVGSEVTVDTFKEGDVVNVTGTSRGHGYQGNIKRWGQSRGPETHGSRYHRIPGSMGSIINRVPKGKRLPGHMGVKKVTIENLVIEKVVADKNVLMIKGNVPGAKNSLIVVKTASKAVKADK	0
SEQID-00533: protein of the 168 nutritive polypeptide library (protein, Arthrospira platensis NIES-39, protein of the 168 nutritive polypeptide library) MVTEFQTRDLADVIRRPIVTEKATIQMELNQFTFDVDPRADKPTIKAAVELLFPVKVLSVNTQNPPRRQRRVGRFVGYKPRYKRAIVTLEDGEALRKVLFPEV	19
